pKi: −log10 of the molar value.
In what follows, each item is paired with its pKi for Glutamate receptor ionotropic AMPA (Homo sapiens, UniProt P42261+P42262+P42263+P48058).
observedProperty: pKi

[[record]]
givensmiles = "O=C(O)Cn1c(=O)c(=O)[nH]c2cc(C(F)(F)F)c(-n3ccc(C(=O)O)c3)cc21"
assayedtarget = "Glutamate receptor ionotropic AMPA (Homo sapiens, UniProt P42261+P42262+P42263+P48058)"
observedresult = 7.18

[[record]]
givensmiles = "CCOC(=O)c1cccc(NC(=O)NCc2ccn(-c3cc4c(cc3C(F)(F)F)[nH]c(=O)c(=O)n4CC(=O)O)c2)c1"
assayedtarget = "Glutamate receptor ionotropic AMPA (Homo sapiens, UniProt P42261+P42262+P42263+P48058)"
observedresult = 8.40

[[record]]
givensmiles = "O=C(O)c1ccn(-c2cc3nc(O)c(O)nc3cc2[N+](=O)[O-])c1"
assayedtarget = "Glutamate receptor ionotropic AMPA (Homo sapiens, UniProt P42261+P42262+P42263+P48058)"
observedresult = 7.22

[[record]]
givensmiles = "O=C(O)Cn1c(=O)c(=O)[nH]c2cc(C(F)(F)F)c(-n3ccc(CNC(=O)Nc4ccc(C(=O)O)cc4)c3)cc21"
assayedtarget = "Glutamate receptor ionotropic AMPA (Homo sapiens, UniProt P42261+P42262+P42263+P48058)"
observedresult = 8.15

[[record]]
givensmiles = "CCOC(=O)c1ccc(NC(=O)NCc2ccn(-c3cc4nc(O)c(O)nc4cc3C(F)(F)F)c2)cc1"
assayedtarget = "Glutamate receptor ionotropic AMPA (Homo sapiens, UniProt P42261+P42262+P42263+P48058)"
observedresult = 6.35

[[record]]
givensmiles = "O=C(O)Cn1c(=O)c(=O)[nH]c2cc(C(F)(F)F)c(-n3ccc(CNC(=O)Nc4cccc(C(=O)O)c4)c3)cc21"
assayedtarget = "Glutamate receptor ionotropic AMPA (Homo sapiens, UniProt P42261+P42262+P42263+P48058)"
observedresult = 7.70

[[record]]
givensmiles = "CCOC(=O)c1ccc(NC(=O)NCc2ccn(-c3cc4c(cc3C(F)(F)F)[nH]c(=O)c(=O)n4CC(=O)O)c2)cc1"
assayedtarget = "Glutamate receptor ionotropic AMPA (Homo sapiens, UniProt P42261+P42262+P42263+P48058)"
observedresult = 8.40

[[record]]
givensmiles = "CCOC(=O)Cn1c(=O)c(=O)[nH]c2cc([N+](=O)[O-])c(-n3ccc(C(=O)O)c3)cc21"
assayedtarget = "Glutamate receptor ionotropic AMPA (Homo sapiens, UniProt P42261+P42262+P42263+P48058)"
observedresult = 6.67

[[record]]
givensmiles = "O=C(NCc1ccn(-c2cc3nc(O)c(O)nc3cc2C(F)(F)F)c1)Nc1ccc(C(=O)O)cc1"
assayedtarget = "Glutamate receptor ionotropic AMPA (Homo sapiens, UniProt P42261+P42262+P42263+P48058)"
observedresult = 7.27

[[record]]
givensmiles = "CCOC(=O)Cn1c(=O)c(=O)[nH]c2cc(C(F)(F)F)c(-n3ccc(C(=O)O)c3)cc21"
assayedtarget = "Glutamate receptor ionotropic AMPA (Homo sapiens, UniProt P42261+P42262+P42263+P48058)"
observedresult = 5.82


Source of measurements: ChEMBL document CHEMBL1130536
